Test: Inhibition of recombinant NDM-1 (unknown origin) using fluorocillin as substrate at 30 uM incubated for 30 mins by fluorescence based assay
Details: Bacteria
measuredQuantity: inhibition

Solved entries:
| inputSmiles | inhibition |
| --- | --- |
| O=C(O)C[C@H](NCCN[C@@H](CC(=O)O)C(=O)O)C(=O)O | 86% |
| CN(CC#N)C(=O)c1ccc2c([N+](=O)[O-])ccc(O)c2n1 | < 20% |
| O=C(O)c1ccc2c([N+](=O)[O-])ccc(O)c2n1 | 100% |
| c1cnc2c(c1)ccc1cccnc12 | 68% |
| CN(CC#N)C(=O)c1ccc2cccc(O)c2n1 | < 20% |

Batch request: inhibition per item, same order as input.
1. CN(C)Cc1ccc2c(Cl)cc(Cl)c(O)c2n1
2. O=[N+]([O-])c1cc(CNCc2ccccc2)c(O)c2ncccc12
3. O=S(=O)(O)c1ccc(O)c2ncccc12

Output:
1. 69%
2. 76%
3. 67%

* * *

So I've got a bunch of compounds here, and I need their inhibition values.
Test system: Bacteria
Test: Inhibition of recombinant IMP-1 (unknown origin) using fluorocillin as substrate at 3 uM incubated for 30 mins by fluorescence based assay
Give bare numbers, in %.

Solved entries:
| inputSmiles | measuredQuantity | reportedValue |
| --- | --- | --- |
| N#CCNCc1cc([N+](=O)[O-])c2cccnc2c1O | inhibition | 43 |
| Cc1ccc2c(Cl)cc(Cl)c(O)c2n1 | inhibition | 22 |
| O=C(O)c1ccc2cccc(O)c2n1 | inhibition | 27 |

Batch request: inhibition per item, same order as input.
1. O=C(O)c1ccc2c([N+](=O)[O-])ccc(O)c2n1
2. N#CCN(Cc1ccccc1)Cc1cc([N+](=O)[O-])c2cccnc2c1O

Output:
74
59

Task: # input compound: Oc1c(Cl)cc(Cl)c2cccnc12 ; wanted: its inhibition
Output: 34

* * *

So I've got a bunch of compounds here, and I need their inhibition values.
Assay: Inhibition of recombinant NDM-1 (unknown origin) using fluorocillin as substrate at 3 uM incubated for 30 mins by fluorescence based assay
Conditions: Bacteria

| inputSmiles | reportedValue |
| --- | --- |
| O=C(O)COc1cccc2cccnc12 | < 20% |

Batch request: inhibition per item, same order as input.
1. O=C(O)c1ccc2c([N+](=O)[O-])ccc(O)c2n1
2. NC(=O)c1ccc([N+](=O)[O-])c2cccnc12
3. Oc1ccc(F)c2cccnc12
4. Cc1ccc2c([N+](=O)[O-])ccc(O)c2n1
5. N#Cc1ccc2cccc(O)c2n1

Output:
20%
< 20%
< 20%
< 20%
< 20%

* * *

So I've got a bunch of molecules here, and I need their inhibition values.
System: Bacteria
Test: Inhibition of recombinant VIM-1 (unknown origin) using fluorocillin as substrate at 30 uM incubated for 30 mins by fluorescence based assay
Give bare numbers, in %.

| inputSmiles | inhibition [%] |
| --- | --- |
| O=C(O)c1ccc2c([N+](=O)[O-])ccc(O)c2n1 | 99 |
| O=C(O)c1ccc2c([N+](=O)[O-])cc([N+](=O)[O-])c(O)c2n1 | 86 |
| Cc1ccc2c(Cl)cc(Cl)c(O)c2n1 | 84 |
| CCNCc1cc([N+](=O)[O-])c2cccnc2c1O | 98 |
| O=[N+]([O-])c1ccc(O)c2ncccc12 | 75 |

Batch request: inhibition per item, same order as input.
1. O=C(O)c1ccc2cccc(O)c2n1
2. Nc1ccc2c([N+](=O)[O-])ccc(O)c2n1
3. Oc1c(Cl)cc(Cl)c2cccnc12
4. N#CCN(Cc1ccccc1)Cc1cc([N+](=O)[O-])c2cccnc2c1O
5. N#CCNCc1cc([N+](=O)[O-])c2cccnc2c1O

Output:
[91, 72, 97, 100, 99]

Task: # input molecule: CN(CC#N)Cc1ccc2c([N+](=O)[O-])ccc(O)c2n1 ; wanted: its inhibition
Output: 92

* * *

System: Bacteria
Assay: Inhibition of recombinant VIM-1 (unknown origin) using fluorocillin as substrate at 3 uM incubated for 30 mins by fluorescence based assay
Answer Not fulfilled if inhibition is under 30%, and Fulfilled if it is 30% or more.

Solved entries (count: 5):
| compound | classLabel |
| --- | --- |
| CN(CC#N)Cc1ccc2c([N+](=O)[O-])ccc(O)c2n1 | Not fulfilled |
| O=C(O)c1ccc2c([N+](=O)[O-])ccc(O)c2n1 | Fulfilled |
| O=[N+]([O-])c1ccc(O)c2ncccc12 [NITROXOLINE] | Not fulfilled |
| N#CCNCc1cc([N+](=O)[O-])c2cccnc2c1O | Fulfilled |
| O=C(O)c1ccc2c([N+](=O)[O-])cc([N+](=O)[O-])c(O)c2n1 | Fulfilled |

Let's switch to this compound now.
Task: Could you please find out whether Nc1ccc2c([N+](=O)[O-])ccc(O)c2n1 has inhibition that meets 30% or exceeds it?
Output: Not fulfilled

* * *

Tested on: Bacteria
Assay: Inhibition of recombinant IMP-1 (unknown origin) using fluorocillin as substrate at 30 uM incubated for 30 mins by fluorescence based assay
So I've got a bunch of molecules here, and I need their inhibition values.
One number for each entry, in %.

Solved entries:
| inputSmiles | quantityUnit | reportedValue |
| --- | --- | --- |
| O=[N+]([O-])c1ccc(O)c2ncccc12 | % | 95 |
| N#CCNCc1cc([N+](=O)[O-])c2cccnc2c1O | % | 96 |
| Nc1ccc2c([N+](=O)[O-])ccc(O)c2n1 | % | 74 |

Batch request: inhibition per item, same order as input.
1. O=C(O)c1ccc2c([N+](=O)[O-])cc([N+](=O)[O-])c(O)c2n1
2. Oc1c(Cl)cc(Cl)c2cccnc12

Output:
1: 91; 2: 97

Task: # input molecule: Cc1ccc2c(Cl)cc(Cl)c(O)c2n1 ; wanted: its inhibition
Output: 92

* * *

Test system: Klebsiella pneumoniae
Test: Antimicrobial activity against Klebsiella pneumoniae clinical isolate T2301 expressing NDM-1 assessed as inhibition of bacterial growth by CLSI protocol based broth microdilution assay
Assay type: functional
So I've got a bunch of molecules here, and I need their MIC values.

Solved entries:
| molecule | testTarget | measuredQuantity | reportedValue |
| --- | --- | --- | --- |
| CCN1CCN(C(=O)N[C@@H](C(=O)N[C@@H]2C(=O)N3[C@@H]2SC(C)(C)[C@@H]3C(=O)O)c2ccccc2)C(=O)C1=O [PIPERACILLIN] | Klebsiella pneumoniae | MIC | 4.1 µg/mL |
| CC(C)(O/N=C(\C(=O)N[C@@H]1C(=O)N2C(C(=O)[O-])=C(C[n+]3ccccc3)CS[C@H]12)c1csc(N)n1)C(=O)O [CEFTAZIDIME] | Klebsiella pneumoniae | MIC | 4.1 µg/mL |
| C[C@@H](O)[C@H]1C(=O)N2C(C(=O)O)=C(SCCNC=N)C[C@H]12 [IMIPENEM ANHYDROUS] | Klebsiella pneumoniae | MIC | 0.016 µg/mL |
| N#CCN(Cc1ccccc1)Cc1cc([N+](=O)[O-])c2cccnc2c1O | Klebsiella pneumoniae | MIC | > 0.066 µg/mL |
| C[C@@H](O)[C@H]1C(=O)N2C(C(=O)O)=C(S[C@@H]3CN[C@H](C(=O)N(C)C)C3)[C@H](C)[C@H]12 [MEROPENEM] | Klebsiella pneumoniae | MIC | 0.128 µg/mL |

Task: Give recorded MIC with Klebsiella pneumoniae for the following molecule: CO/N=C(\C(=O)N[C@@H]1C(=O)N2C(C(=O)O)=C(COC(N)=O)CS[C@H]12)c1ccco1 [CEFUROXIME]
Output: 8.19 µg/mL

* * *

Tested on: Bacteria
Experiment: Inhibition of recombinant IMP-1 (unknown origin) using fluorocillin as substrate at 10 uM incubated for 30 mins by fluorescence based assay
measuredQuantity: inhibition (%)
Give bare numbers, in %.

Solved entries:
| compound | inhibition [%] |
| --- | --- |
| O=[N+]([O-])c1ccc(O)c2ncccc12 [NITROXOLINE] | 42 |
| Cc1ccc2c(Cl)cc(Cl)c(O)c2n1 | 73 |
| CN(CC#N)Cc1ccc2c([N+](=O)[O-])ccc(O)c2n1 | 38 |
| Nc1ccc2c([N+](=O)[O-])ccc(O)c2n1 | 38 |
| Oc1c(Cl)cc(Cl)c2cccnc12 | 95 |
| N#CCNCc1cc([N+](=O)[O-])c2cccnc2c1O | 91 |
| CCNCc1cc([N+](=O)[O-])c2cccnc2c1O | 53 |
| O=C(O)c1ccc2c([N+](=O)[O-])ccc(O)c2n1 | 96 |
| N#CCN(Cc1ccccc1)Cc1cc([N+](=O)[O-])c2cccnc2c1O | 93 |
| O=C(O)c1ccc2c([N+](=O)[O-])cc([N+](=O)[O-])c(O)c2n1 | 47 |

Task: # input compound: O=C(O)c1ccc2cccc(O)c2n1 ; wanted: its inhibition
Output: 72
